tested on: Hepatitis B virus; test: Antiviral activity against HBV infected in human HepG2.2.15 cells assessed as inhibition of viral e antigen production; type: functional, organism-based; conditions: HepG2 2.2.15
pIC50: −log10 of the molar value.
ASSAY_METRIC: pIC50

Reported pIC50 ( `CCC(=O)O[C@H]1C[C@H]2[C@]3(C)C(=O)C[C@]4(C)[C@@H]([C@@](C)(O)C(=O)CCC(C)(C)OC(C)=O)[C@H](OC(=O)CC)C[C@@]4(C)[C@@H]3C[C@H]3O[C@]32C(C)(C)[C@@H]1OC(=O)CC` ) = < 2.78

Reported pIC50 ( `CCC(=O)O[C@H]1C[C@@H]2C(=CC[C@@H]3[C@@]2(C)C(=O)C[C@]2(C)[C@@H]([C@@](C)(O)C(=O)CCC(C)(C)OC(C)=O)[C@H](OC(C)=O)C[C@@]32C)C(C)(C)[C@@H]1OC(=O)CC` ) = < 3.19

Reported pIC50 ( `CC(=O)O[C@H]1C[C@@H]2C(=CC[C@@H]3[C@@]2(C)C(=O)C[C@]2(C)[C@@H]([C@@](C)(O)C(=O)CCC(C)(C)OC(C)=O)[C@H](OC(C)=O)C[C@@]32C)C(C)(C)[C@@H]1OC(C)=O` ) = < 3.09

Reported pIC50 ( `CCOCC(=O)O[C@H]1C[C@H]2[C@]3(C)C(=O)C[C@]4(C)[C@@H]([C@@](C)(O)C(=O)CCC(C)(C)OC(C)=O)[C@H](OC(=O)COCC)C[C@@]4(C)[C@@H]3C[C@@H](O)[C@@]2(OC(=O)c2cccc(Cl)c2)C(C)(C)[C@@H]1OC(=O)COCC` ) = < 3.15

Reported pIC50 ( `CCCC(=O)O[C@H]1C[C@@H]2C(=CC[C@@H]3[C@@]2(C)C(=O)C[C@]2(C)[C@@H]([C@@](C)(O)C(=O)CCC(C)(C)OC(C)=O)[C@H](O)C[C@@]32C)C(C)(C)[C@@H]1O` ) = < 4.91

----------
What Ratio CC50/IC50 was measured for each of the following?
assay: Selectivity index, ratio of CC50 for human HepG2.2.15 cells to IC50 for HBV infected in human HepG2.2.15 cells assessed as inhibition of viral surface antigen production; assay type: functional

Reported Ratio CC50/IC50 ( `CCCC(=O)O[C@@H]1[C@@H](O)C[C@@H]2C(=CC[C@@H]3[C@@]2(C)C(=O)C[C@]2(C)[C@@H]([C@@](C)(O)C(=O)CCC(C)(C)OC(C)=O)[C@H](O)C[C@@]32C)C1(C)C` ) = <1

Reported Ratio CC50/IC50 ( CC(=O)OC(C)(C)CCC(=O)[C@](C)(O)[C@H]1[C@H](O)C[C@@]2(C)[C@@H]3CC=C4[C@@H](C[C@H](O)[C@@H](O)C4(C)C)[C@]3(C)C(=O)C[C@]12C [HEMSLECIN A] ) = <1

Reported Ratio CC50/IC50 ( `CCCC(=O)O[C@H]1C[C@@H]2C(=CC[C@@H]3[C@@]2(C)C(=O)C[C@]2(C)[C@@H]([C@@](C)(O)C(=O)CCC(C)(C)OC(C)=O)[C@H](O)C[C@@]32C)C(C)(C)[C@@H]1O` ) = <1

Reported Ratio CC50/IC50 ( `CCC(=O)O[C@H]1C[C@@H]2C(=CC[C@@H]3[C@@]2(C)C(=O)C[C@]2(C)[C@@H]([C@@](C)(O)C(=O)CCC(C)(C)OC(C)=O)[C@H](O)C[C@@]32C)C(C)(C)[C@@H]1OC(=O)CC` ) = >60

Reported Ratio CC50/IC50 ( `CCC(=O)O[C@H]1C[C@H]2[C@]3(C)C(=O)C[C@]4(C)[C@@H]([C@@](C)(O)C(=O)CCC(C)(C)OC(C)=O)[C@H](OC(=O)CC)C[C@@]4(C)[C@@H]3C[C@H]3O[C@]32C(C)(C)[C@@H]1OC(=O)CC` ) = >2.2

All values here come from ChEMBL document CHEMBL2331335.
